# Tested on: HOP-92 NSCLC
# Method summary: NCI tumour cell line growth inhibition, 48 h
Readout name: log10 of TGI (log10 of the value in µM)

| Compound | Reported |
| --- | --- |
| C=C(CNCCc1ccc(O)cc1)[C@@H]1CC[C@]2(CO)CC[C@]3(C)[C@H](CC[C@@H]4[C@@]5(C)CCC(NCCc6ccc(O)cc6)C(C)(C)[C@@H]5CC[C@]43C)[C@@H]12 (some centres not stated) | 0.34 |
| Nc1nonc1C(=Nc1ccc(F)c(Cl)c1)NO | 1.74 |
| NC1CCCCC1N.Nc1c(N=Nc2ccc(-c3ccc(N=Nc4cc(S(=O)(=O)[O-])c5ccccc5c4N)cc3)cc2)cc(S(=O)(=O)[O-])c2ccccc12.[OH3+].[OH3+].[Pt+4] | 1.30 |
| CC1(C)C(N(O)C(=O)Nc2ccc(Cl)cc2)N(c2ccc(Cl)cc2)C(=O)N1CC(=O)N/N=C/C=C/c1ccc([N+](=O)[O-])o1 (configuration not stated) | 0.36 |
| Oc1ccc(O)c(Cc2ccccc2)c1 | 1.55 |
| Cc1c2c(cc3c1[nH]c1ccccc13)C(c1ccc(Cl)cc1)=NCC2 | 1.49 |
| CCOC(=O)C1C(O)CC2c3ccccc3-c3ccccc3C21 (configuration not stated) | 1.88 |
| O=C1C(Cl)C(c2cc3cc(Br)ccc3nc2Cl)N1c1ccc(F)c(Cl)c1 (configuration not stated) | 0.43 |
| CCOC(=O)N1C/C(=C/c2ccc(Cl)cc2)C(=O)/C(=C/c2ccc(Cl)cc2)C1 | 1.51 |

Cited source: PubChem BioAssay (NCI)
